Test system: MIA PaCa-2
Assay: Antiproliferative activity against human MIAPaCa2 cells after 48 hrs by sulforhodamine B assay
Format: functional, cell-based
Condition Set: MIA PaCa-2, 48 h
Readout: IC50 (µM)
Please state the figure in µM; there is no need to write the unit.

Record Smiles	Units Label	IC50
COc1ccc2nc(-c3ccc(N/C=C\C(=O)c4ccc(OC)c([N+](=O)[O-])c4)cc3)sc2c1	µM	23.6
COc1ccc(C(=O)/C=C\Nc2ccc(-c3nc4cc(OC)c(OC)c(OC)c4s3)cc2)cc1O	µM	32.8

Now, please, on to the next molecule.
# input For the molecule COc1cc(OC)c2sc(-c3ccc(N/C=C\C(=O)c4ccc(OC)c([N+](=O)[O-])c4)c(C)c3)nc2c1 , what IC50 is on record?
# output 13.9
